# experimental-target: UniProtKB Q9UKP6
# assay-info: Agonist activity against human urotensin 2 receptor expressed in […] cells assessed as beta-galactosidase activity after 5 days by R-SAT assay relative to urotensin 2
# Format: functional, cell-based
property-measured: Efficacy (%)

Worked cases, answers included:
compound	experimental-target	Efficacy [%]
CN(C)CC[C@H](NC(=O)c1ccc(-c2ccc(Cl)cc2)cc1)c1ccc2ccccc2c1	UniProtKB Q9UKP6	129
Cc1ccc(C(CCN(C)C)NC(=O)c2ccc(-c3ccc4ccccc4c3)cc2)cc1 (stereo not given)	UniProtKB Q9UKP6	83
O=C(NC(CCN1CCCCC1)c1ccc(Cl)cc1)c1ccc(-c2ccccc2)cc1 (stereo not given)	UniProtKB Q9UKP6	57
CN(C)CCC(NC(=O)c1ccc(-c2ccc(Cl)cc2)cc1)c1ccc(Cl)cc1 (stereo not given)	UniProtKB Q9UKP6	137
COc1ccc(-c2ccc(C(=O)NC(CCN(C)C)c3ccc(Cl)cc3)cc2)cc1 (stereo not given)	UniProtKB Q9UKP6	143

(1) COc1ccc(-c2ccc(C(=O)NC(CCN(C)C)c3ccc(C)cc3)cc2)cc1 (stereo not given)
(2) Cc1ccc(C(CCN(C)C)NC(=O)c2cccc(-c3ccccc3)c2)cc1 (stereo not given)
(3) COc1ccc(-c2cccc(C(=O)NC(CCN(C)C)c3ccc(C)cc3)c2)cc1 (stereo not given)
Req: Order by Efficacy, ascending. List the labels according to the requested ordering.
Resp: 2, 3, 1

(A) COc1ccc(-c2ccc(C(=O)NC(CCN(C)C)c3ccc4ccccc4c3)cc2)cc1 (stereo not given)
(B) CN(C)CCC(NC(=O)c1cccc(-c2ccccc2)c1)c1ccc2ccccc2c1 (stereo not given)
Req: Just curious, which one has the larger Efficacy reading, A or B ? Your answer should be the label of the entry you select.
Resp: A

(a) CN(C)CCC(NC(=O)c1ccc(-c2ccc3ccccc3c2)cc1)c1ccc(Cl)cc1 (stereo not given)
(b) CN(C)CCCC(NC(=O)c1ccccc1)c1ccc(Cl)cc1 (stereo not given)
(c) COc1ccc(-c2cccc(C(=O)NC(CCN(C)C)c3ccc4ccccc4c3)c2)cc1 (stereo not given)
Req: Task field, ranking: reported Efficacy, descending order. List the labels according to the requested ordering.
Resp: a, b, c

----------
# experimental-target: Urotensin-2 receptor (Homo sapiens)
# assay-info: Agonist activity against human urotensin 2 receptor expressed in […] cells assessed as beta-galactosidase activity after 5 days by R-SAT assay relative to urotensin 2
# Format: functional, cell-based
property-measured: Efficacy

Req: For O=C(NC(CCN1CCCCC1)c1ccc(Cl)cc1)c1ccccc1 (stereo not given) , what is its reported Efficacy?
Resp: 55%

----------
# experimental-target: Urotensin-2 receptor (Homo sapiens)
# Sequence (Q9UKP6 whole entry): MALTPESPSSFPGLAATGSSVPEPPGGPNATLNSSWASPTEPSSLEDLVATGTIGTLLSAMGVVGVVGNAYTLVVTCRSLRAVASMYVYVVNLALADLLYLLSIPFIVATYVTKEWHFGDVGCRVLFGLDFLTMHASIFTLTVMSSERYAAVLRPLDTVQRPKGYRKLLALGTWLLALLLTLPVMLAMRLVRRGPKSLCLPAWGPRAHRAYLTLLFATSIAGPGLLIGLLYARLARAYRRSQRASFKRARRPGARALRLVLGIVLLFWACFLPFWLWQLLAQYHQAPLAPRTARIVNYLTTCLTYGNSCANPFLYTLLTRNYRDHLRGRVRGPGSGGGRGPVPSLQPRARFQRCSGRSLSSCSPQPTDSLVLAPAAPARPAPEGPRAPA
# assay-info: Agonist activity against human urotensin 2 receptor expressed in […] cells assessed as beta-galactosidase activity after 5 days by R-SAT assay
property-measured: EC50 (nM)

Worked cases, answers included:
molecule	EC50 (nM)
Cc1ccc(C(CCN(C)C)NC(=O)c2ccc(-c3ccccc3)cc2)cc1 (stereo unspecified)	200
COc1ccc(-c2cccc(C(=O)NC(CCN(C)C)c3ccc(C)cc3)c2)cc1 (stereo unspecified)	1070
Cc1ccc(C(CCN(C)C)NC(=O)c2ccc(-c3ccc(Cl)cc3)cc2)cc1 (stereo unspecified)	126
COc1ccc(-c2cccc(C(=O)NC(CCN(C)C)c3ccc(Cl)cc3)c2)cc1 (stereo unspecified)	575
CN(C)CC[C@H](NC(=O)c1ccc(-c2ccc(Cl)cc2)cc1)c1ccc2ccccc2c1	22.9
CN(C)CCC(NC(=O)c1ccc(-c2ccc(Cl)cc2)cc1)c1ccc(Cl)cc1 (stereo unspecified)	75.9
Cc1ccc(C(CCN(C)C)NC(=O)c2ccc(-c3ccc4ccccc4c3)cc2)cc1 (stereo unspecified)	813
Cc1ccc(C(CCN(C)C)NC(=O)c2cccc(-c3ccc(Cl)cc3)c2)cc1 (stereo unspecified)	646
CN(C)CCC(NC(=O)c1ccc(-c2ccccc2)cc1)c1ccc2ccccc2c1 (stereo unspecified)	120
COc1ccc(-c2cccc(C(=O)NC(CCN(C)C)c3ccc4ccccc4c3)c2)cc1 (stereo unspecified)	646

(1) Cc1ccc(C(CCN(C)C)NC(=O)c2cccc(-c3ccccc3)c2)cc1 (stereo unspecified)
(2) CN(C)CCC(NC(=O)c1cccc(-c2ccccc2)c1)c1ccc2ccccc2c1 (stereo unspecified)
Req: Just curious, which one has the larger EC50 reading, 1 or 2 ? Your answer should be the label of the entry you select.
Resp: 1

----------
# experimental-target: Urotensin-2 receptor (Homo sapiens) (UniProt Q9UKP6)
# assay-info: Agonist activity against human urotensin 2 receptor expressed in […] cells assessed as beta-galactosidase activity after 5 days by R-SAT assay relative to urotensin 2
# Type: functional, cell-based
property-measured: Efficacy

Worked cases, answers included:
compound	Efficacy
CN(C)CCC(NC(=O)c1ccc(-c2ccccc2)cc1)c1ccc2ccccc2c1 (centres undefined)	111%
CO[C@@H](C(=O)N[C@H](CCN(C)C)c1ccc(Cl)cc1)c1ccccc1	112%
CN(C)CCC(NC(=O)c1cccc(-c2ccc3ccccc3c2)c1)c1ccc(Cl)cc1 (centres undefined)	41%
CN(C)CCC(NC(=O)c1cccc(-c2ccc(Cl)cc2)c1)c1ccc(Cl)cc1 (centres undefined)	63%
CN(C)CC[C@H](NC(=O)c1ccc(-c2ccccc2)cc1)c1ccc(Cl)cc1	116%

Req: Which measured Efficacy belongs to `CN(C)CC[C@@H](NC(=O)c1ccc(-c2ccc(Cl)cc2)cc1)c1ccc2ccccc2c1` , tested on Urotensin-2 receptor (Homo sapiens) (UniProt Q9UKP6)?
Resp: 53%

Req: Try this compound too: CN(C)CCC(NC(=O)c1cccc(-c2ccccc2)c1)c1ccc(Cl)cc1 (centres undefined)
Resp: 92%

Req: Try this compound too: Cc1ccc(C(CCN(C)C)NC(=O)c2ccc(-c3ccccc3)cc2)cc1 (centres undefined)
Resp: 114%

Req: Try this compound too: CN(C)CCC(NC(=O)c1ccc(-c2ccc(Cl)cc2)cc1)c1ccc2ccccc2c1 (centres undefined)
Resp: 129%

Req: Try this compound too: `CO[C@@H](C(=O)N[C@H](CCN(C)C)c1ccc2ccccc2c1)c1ccccc1`
Resp: 53%

Req: Try this compound too: COc1ccc(-c2cccc(C(=O)NC(CCN(C)C)c3ccc(Cl)cc3)c2)cc1 (centres undefined)
Resp: 78%

Req: Try this compound too: Cc1ccc(C(CCN(C)C)NC(=O)c2ccc(-c3ccc(Cl)cc3)cc2)cc1 (centres undefined)
Resp: 108%

Req: Try this compound too: CN(C)CCC(NC(=O)c1cccc(-c2ccc(Cl)cc2)c1)c1ccc2ccccc2c1 (centres undefined)
Resp: 45%

----------
# experimental-target: Urotensin-2 receptor (Homo sapiens, UniProt Q9UKP6)
# assay-info: Agonist activity against human urotensin 2 receptor expressed in […] cells assessed as beta-galactosidase activity after 5 days by R-SAT assay
pEC50: −log10 of the molar value.
property-measured: pEC50

Worked cases, answers included:
compound	pEC50
CN(C)CCCC(NC(=O)c1ccc(-c2ccccc2)cc1)c1ccc(Cl)cc1 (centres undefined)	6.50
CO[C@@H](C(=O)N[C@H](CCN(C)C)c1ccc2ccccc2c1)c1ccccc1	5.56

(I) CN(C)CCC(NC(=O)c1ccc(-c2ccc3ccccc3c2)cc1)c1ccc(Cl)cc1 (centres undefined)
(II) CN(C)CCC(NC(=O)c1cccc(-c2ccccc2)c1)c1ccc(Cl)cc1 (centres undefined)
Req: Just curious, which one has the larger pEC50 reading, I or II ? Your answer should be the label of the entry you select.
Resp: I
